Reported pIC50 values are given for each entry in this list.
# Target Or System: p110β/p85α (PI3Kβ) (Homo sapiens, UniProt P42338)
# Sequence (P42338 whole entry): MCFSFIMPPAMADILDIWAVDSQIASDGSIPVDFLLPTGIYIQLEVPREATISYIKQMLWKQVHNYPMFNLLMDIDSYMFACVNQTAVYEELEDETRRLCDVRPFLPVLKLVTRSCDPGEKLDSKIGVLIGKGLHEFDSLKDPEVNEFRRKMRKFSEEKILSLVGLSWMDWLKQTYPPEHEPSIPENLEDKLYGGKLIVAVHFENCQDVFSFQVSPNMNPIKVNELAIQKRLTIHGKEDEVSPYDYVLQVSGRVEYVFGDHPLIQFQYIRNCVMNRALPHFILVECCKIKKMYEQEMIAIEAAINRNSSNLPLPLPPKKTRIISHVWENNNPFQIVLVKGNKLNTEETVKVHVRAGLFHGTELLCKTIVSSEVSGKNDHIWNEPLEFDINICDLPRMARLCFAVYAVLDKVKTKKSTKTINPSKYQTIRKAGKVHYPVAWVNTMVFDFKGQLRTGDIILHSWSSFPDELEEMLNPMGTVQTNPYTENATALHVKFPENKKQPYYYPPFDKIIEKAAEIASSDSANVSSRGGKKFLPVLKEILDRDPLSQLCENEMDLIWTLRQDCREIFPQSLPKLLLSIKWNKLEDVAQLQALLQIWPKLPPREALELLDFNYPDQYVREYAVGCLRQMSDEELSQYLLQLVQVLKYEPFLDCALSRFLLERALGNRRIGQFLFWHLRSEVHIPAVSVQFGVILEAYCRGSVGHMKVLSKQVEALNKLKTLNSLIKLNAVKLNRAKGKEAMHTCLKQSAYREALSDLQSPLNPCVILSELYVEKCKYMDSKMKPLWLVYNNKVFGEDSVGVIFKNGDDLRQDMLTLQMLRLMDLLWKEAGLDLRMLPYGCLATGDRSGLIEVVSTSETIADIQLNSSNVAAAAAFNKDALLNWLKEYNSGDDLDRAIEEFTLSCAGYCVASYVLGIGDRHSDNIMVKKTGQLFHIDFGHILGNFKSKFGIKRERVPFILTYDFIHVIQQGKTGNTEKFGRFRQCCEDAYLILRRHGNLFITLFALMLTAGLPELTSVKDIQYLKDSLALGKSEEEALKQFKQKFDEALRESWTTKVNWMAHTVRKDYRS
# Sequence (P27986 whole entry partner): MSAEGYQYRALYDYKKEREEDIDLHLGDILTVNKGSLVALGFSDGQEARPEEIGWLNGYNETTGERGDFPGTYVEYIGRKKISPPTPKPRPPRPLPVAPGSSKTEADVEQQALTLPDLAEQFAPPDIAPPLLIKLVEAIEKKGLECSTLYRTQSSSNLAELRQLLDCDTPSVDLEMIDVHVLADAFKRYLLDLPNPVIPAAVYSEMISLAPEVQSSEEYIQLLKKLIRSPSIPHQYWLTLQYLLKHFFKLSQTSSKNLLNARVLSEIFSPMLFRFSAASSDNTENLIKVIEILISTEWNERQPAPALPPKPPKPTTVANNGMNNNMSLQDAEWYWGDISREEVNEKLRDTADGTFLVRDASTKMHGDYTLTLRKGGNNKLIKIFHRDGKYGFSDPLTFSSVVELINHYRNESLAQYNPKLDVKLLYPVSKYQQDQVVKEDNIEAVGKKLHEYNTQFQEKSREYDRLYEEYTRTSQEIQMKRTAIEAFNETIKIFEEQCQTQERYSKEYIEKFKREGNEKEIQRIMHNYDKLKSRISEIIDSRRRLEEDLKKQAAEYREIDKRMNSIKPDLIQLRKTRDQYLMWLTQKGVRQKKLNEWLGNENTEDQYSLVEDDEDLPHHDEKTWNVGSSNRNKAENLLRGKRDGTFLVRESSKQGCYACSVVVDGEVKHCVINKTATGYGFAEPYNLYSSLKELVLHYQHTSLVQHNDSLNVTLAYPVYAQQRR
# Experiment Summary: HTRF assay, p110β/p85α
# Experimental Conditions: read-out: PI3Kβ HTRF IC50 Inhibition Designation
pIC50: −log10 of the molar value.

Example entries and their recorded answers appear below.
Quick check: pIC50 of `COc1ncc(-c2ccc3nccc(-c4ccc(C(=O)N5C[C@H]6C[C@@H]5C(=O)O6)cc4)c3c2)cc1NS(=O)(=O)c1ccc(F)cc1F` ?
> 8.00

Now consider `COc1ncc(-c2ccc3nccc(-c4ccc(C(=O)N5C[C@@H]6C[C@H]5C(=O)O6)cc4)c3c2)cc1NS(=O)(=O)c1ccc(F)cc1F` and answer again.
> 8.00

Shifting focus to the compound that follows.
Quick check: pIC50 of `CC(C)Oc1c(N2CCN(Cc3cc4nc(-c5cnc(N)nc5)nc(N5CCOCC5)c4s3)CC2)c(=O)c1=O` ?
6.00 to 7.00

----------
Reported Ki values are given for each entry in this list.
# Target Or System: recombinant human cIAP-1 (Homo sapiens)
# Experiment Summary: Fluorescence polarization competition binding assay, cIAP-1
# Experimental Conditions: c-IAP-1, 3 h

Example entries and their recorded answers appear below.
Quick check: Ki of `CN[C@@H](C)C(=O)N[C@H]1CCCC[C@H]2CC[C@@H](C(=O)NCc3cccc(CNC(=O)[C@H]4CCC(=O)O4)c3)N2C1=O` ?
1000 to 10000 nM

Now consider `C=CC(=O)NCc1cccc(CNC(=O)[C@@H]2CC[C@@H]3CCCC[C@H](NC(=O)[C@H](C)NC)C(=O)N32)c1` and answer again.
100 to 1000 nM

Now consider `C=CS(=O)(=O)Nc1cccc(CNC(=O)[C@@H]2CC[C@@H]3CCCC[C@H](NC(=O)[C@H](C)NC)C(=O)N32)c1` and answer again.
< 10 nM

Shifting focus to the compound that follows.
Quick check: Ki of CN[C@@H](C)C(=O)N[C@H]1CCCC[C@H]2CC[C@@H](C(=O)N[C@@H]3CCCc4c(NC(=O)C5CCC(=O)O5)cccc43)N2C1=O (stereo partly shown) ?
10 to 100 nM

----------
# Target Or System: recombinant human cIAP-1 (Homo sapiens, UniProt Q13490)
# Sequence (Q13490 whole entry): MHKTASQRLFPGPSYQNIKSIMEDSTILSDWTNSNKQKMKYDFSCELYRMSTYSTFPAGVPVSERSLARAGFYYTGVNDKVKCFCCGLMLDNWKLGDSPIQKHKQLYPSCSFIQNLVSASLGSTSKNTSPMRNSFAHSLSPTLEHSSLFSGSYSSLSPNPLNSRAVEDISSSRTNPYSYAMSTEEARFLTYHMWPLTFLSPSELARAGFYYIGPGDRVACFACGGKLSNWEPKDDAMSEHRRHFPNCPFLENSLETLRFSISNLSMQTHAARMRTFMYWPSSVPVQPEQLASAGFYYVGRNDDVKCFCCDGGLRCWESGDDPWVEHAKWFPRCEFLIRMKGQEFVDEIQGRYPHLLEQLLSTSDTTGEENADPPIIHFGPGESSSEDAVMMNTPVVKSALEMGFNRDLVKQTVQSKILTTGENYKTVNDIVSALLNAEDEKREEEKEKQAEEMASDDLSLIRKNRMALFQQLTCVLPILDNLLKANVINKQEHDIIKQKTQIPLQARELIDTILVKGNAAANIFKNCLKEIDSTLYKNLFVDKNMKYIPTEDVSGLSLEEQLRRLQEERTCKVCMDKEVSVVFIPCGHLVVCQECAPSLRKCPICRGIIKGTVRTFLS
# Experiment Summary: Fluorescence polarization competition binding assay, cIAP-1
# Experimental Conditions: c-IAP-1, 3 h
pKi: −log10 of the molar value.
Reported pKi values are given for each entry in this list.

Quick check: pKi of `CN[C@@H](C)C(=O)N[C@H]1CCCC[C@H]2CC[C@@H](C(=O)NCc3cccc(C(=O)N4C[C@@H]5C[C@H]4C(=O)O5)c3)N2C1=O` ?
6.00 to 7.00

Now consider `CN[C@@H](C)C(=O)N[C@H]1CCCC[C@H]2CC[C@@H](C(=O)NCc3cccc(C(=O)N[C@@H]4CCOC4=O)c3)N2C1=O` and answer again.
6.00 to 7.00

Now consider `CN[C@@H](C)C(=O)N[C@H]1CCCC[C@H]2CC[C@@H](C(=O)NCc3cccc(C(C(C)=O)C(C)=O)c3)N2C1=O` and answer again.
6.00 to 7.00

Now consider `C=CC(=O)Nc1cccc(CNC(=O)[C@@H]2CC[C@@H]3CCCC[C@H](NC(=O)[C@H](C)N(C)C(=O)OC(C)(C)C)C(=O)N32)c1` and answer again.
< 5.00

Others:
Quick check: pKi of CN[C@@H](C)C(=O)N[C@H]1CCCC[C@H]2CC[C@@H](C(=O)NCc3cccc(C(=O)OC4C(=O)OCC4(C)C)c3)N2C1=O (stereo partly drawn) ?
5.00 to 6.00

Now consider `CN[C@@H](C)C(=O)N[C@H]1CCCC[C@H]2CC[C@@H](C(=O)NCc3cccc(NC(=O)[C@@H]4CC(=O)N4)c3)N2C1=O` and answer again.
6.00 to 7.00

Now consider `CN[C@@H](C)C(=O)N[C@H]1CCCC[C@H]2CC[C@@H](C(=O)NCc3cccc(C(=O)C=C(C)C)c3)N2C1=O` and answer again.
7.00 to 8.00

Now consider `[2H]C([2H])=C([2H])C(=O)Nc1cccc(CNC(=O)[C@@H]2CC[C@@H]3CCCC[C@H](NC(=O)[C@H](C)NC)C(=O)N32)c1` and answer again.
6.00 to 7.00

Now consider `CN[C@@H](C)C(=O)N[C@H]1CCCC[C@H]2CC[C@@H](C(=O)NCc3cccc(C(=O)N4CCOC(=O)C4)c3)N2C1=O` and answer again.
6.00 to 7.00

Now consider CN[C@@H](C)C(=O)N[C@H]1CCCC[C@H]2CC[C@@H](C(=O)NCc3cccc(C(=O)OC4CCOC4=O)c3)N2C1=O (stereo partly drawn) and answer again.
6.00 to 7.00

Now consider `CC(=O)C(C(C)=O)c1cccc(CNC(=O)[C@@H]2CC[C@@H]3CCCC[C@H](NC(=O)[C@H](C)N(C)C(=O)OC(C)(C)C)C(=O)N32)c1` and answer again.
< 5.00

Now consider `CN[C@@H](C)C(=O)N[C@H]1CCCC[C@H]2CC[C@@H](C(=O)NCc3cccc(COC(=O)CC(C)=O)c3)N2C1=O` and answer again.
5.00 to 6.00

Now consider CN[C@@H](C)C(=O)N[C@H]1CCCC[C@H]2CC[C@@H](C(=O)NCc3cccc(C(=O)N4CC5CCC4C(=O)O5)c3)N2C1=O (stereo partly drawn) and answer again.
5.00 to 6.00

Now consider `CN[C@@H](C)C(=O)N[C@H]1CCCC[C@H]2CC[C@@H](C(=O)NCc3cccc(NC(=O)C45CC[C@@](C)(C(=O)O4)C5(C)C)c3)N2C1=O` and answer again.
6.00 to 7.00

Now consider CN[C@@H](C)C(=O)N[C@H]1CCCC[C@H]2CC[C@@H](C(=O)NCc3cccc(C(=O)N4CCC5CC4C(=O)O5)c3)N2C1=O (stereo partly drawn) and answer again.
6.00 to 7.00

Now consider `CN[C@@H](C)C(=O)N[C@H]1CCCC[C@H]2CC[C@@H](C(=O)NCc3cccc(NC(=O)C=C(C)C)c3)N2C1=O` and answer again.
7.00 to 8.00

Now consider `CN[C@@H](C)C(=O)N[C@H]1CCCC[C@H]2CC[C@@H](C(=O)NCc3cccc(NC(=O)[C@H]4CCC(=O)O4)c3)N2C1=O` and answer again.
6.00 to 7.00

Now consider `CN[C@@H](C)C(=O)N[C@H]1CCCC[C@H]2CC[C@@H](C(=O)NCc3cccc(C(=O)N[C@@H]4COC(=O)C4)c3)N2C1=O` and answer again.
6.00 to 7.00
